Biological target: human VR1 (Homo sapiens, UniProt Q8NER1)
Construct: expressed in transfected cells
Sequence (Q8NER1 whole entry): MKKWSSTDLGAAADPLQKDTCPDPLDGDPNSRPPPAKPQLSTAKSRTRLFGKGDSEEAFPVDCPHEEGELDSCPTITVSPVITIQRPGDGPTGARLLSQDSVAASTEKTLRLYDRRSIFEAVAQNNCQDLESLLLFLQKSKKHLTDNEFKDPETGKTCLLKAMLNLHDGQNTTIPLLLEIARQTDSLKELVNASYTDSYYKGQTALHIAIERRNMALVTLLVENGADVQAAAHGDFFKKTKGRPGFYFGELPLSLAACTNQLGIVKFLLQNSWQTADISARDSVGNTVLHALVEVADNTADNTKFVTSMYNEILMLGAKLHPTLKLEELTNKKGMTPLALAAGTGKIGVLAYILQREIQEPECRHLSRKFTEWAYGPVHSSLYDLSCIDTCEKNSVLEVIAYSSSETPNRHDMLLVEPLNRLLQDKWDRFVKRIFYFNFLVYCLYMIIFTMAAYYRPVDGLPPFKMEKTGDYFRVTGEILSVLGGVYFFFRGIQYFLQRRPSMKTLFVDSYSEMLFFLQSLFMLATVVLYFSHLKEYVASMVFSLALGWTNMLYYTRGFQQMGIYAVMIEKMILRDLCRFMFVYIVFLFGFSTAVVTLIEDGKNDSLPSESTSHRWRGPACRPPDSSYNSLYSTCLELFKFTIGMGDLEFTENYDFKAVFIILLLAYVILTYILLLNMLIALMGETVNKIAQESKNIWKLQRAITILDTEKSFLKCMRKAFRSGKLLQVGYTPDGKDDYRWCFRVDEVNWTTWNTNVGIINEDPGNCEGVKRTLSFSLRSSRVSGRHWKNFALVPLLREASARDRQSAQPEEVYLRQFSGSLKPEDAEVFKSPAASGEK
Experiment: Capsaicin-induced Ca2+ influx in the human VR1-transfected CHO cell line (Assay 1)
Format: cell-based
Conditions: human VR1-CHOluc9aeq cells, 10 nM capsaicin; compound purity about 40 to 90%; read-out: hVR1 class
Description: [Measurement of Capsaicin-Induced Ca^2+ Influx in the Human VR1-Transfected CHO Cell Line] (Assay 1) (1) Establishment of the Human VR1-CHOluc9aeq Cell Line The cloned hVR1 cDNA was constructed with pcDNA3 vector and transfected into a CHOluc9aeq cell line. The cell line contains aequorin and CRE-luciferase reporter genes as read-out signals. […]
Metric: IC50

Compound: O=C(Nc1ccc(F)c(F)c1)Nc1ccccc1CCO
Measured on: human VR1 (Homo sapiens, UniProt Q8NER1)
IC50: 500 to 1000 nM
--
Compound: Cc1ccc(CNC(=O)Nc2ccccc2CCO)cc1
Measured on: human VR1 (Homo sapiens, UniProt Q8NER1)
IC50: 500 to 1000 nM
--
Compound: O=C(Nc1ccccc1CCO)Nc1cccc(F)c1F
Measured on: human VR1 (Homo sapiens, UniProt Q8NER1)
IC50: 500 to 1000 nM
--
Compound: O=C(Nc1ccc(-c2ccc([N+](=O)[O-])cc2)cc1)Nc1ccccc1CCO
Measured on: human VR1 (Homo sapiens, UniProt Q8NER1)
IC50: 100 to 500 nM
--
Compound: COc1cc2c(cc1O)CN(C(=O)Nc1ccc(Cl)c(C(F)(F)F)c1)CC2
Measured on: human VR1 (Homo sapiens, UniProt Q8NER1)
IC50: 100 to 500 nM

Q: Could you please provide reported IC50 for CNS(=O)(=O)c1ccc2c(c1)CN(C(=O)Nc1ccc(Cl)c(C(F)(F)F)c1)CC2 ? Thanks!
A: 500 to 1000 nM

Q: Could you please provide reported IC50 for O=C(Nc1ccc(F)c(Cl)c1)Nc1ccccc1CCO ? Thanks!
A: 100 to 500 nM

Q: Could you please provide reported IC50 for O=C(Nc1ccccc1CCO)Nc1ccccc1Oc1ccccc1 ? Thanks!
A: 500 to 1000 nM

Q: Could you please provide reported IC50 for CCOC(=O)c1cccc(-c2cccc(NC(=O)Nc3ccccc3CCO)c2)c1 ? Thanks!
A: < 100 nM

Q: Could you please provide reported IC50 for O=C(Nc1cccc(-c2ccc(Cl)cc2)c1)Nc1ccc(Cl)cc1CCO ? Thanks!
A: 500 to 1000 nM

Q: Could you please provide reported IC50 for O=C(Nc1cccc(-c2ccc(Cl)cc2Cl)c1)Nc1ccccc1CCO ? Thanks!
A: < 100 nM

Q: Could you please provide reported IC50 for COc1cc2c(cc1OC)CN(C(=O)Nc1cccc(SC)c1)CC2 ? Thanks!
A: 500 to 1000 nM

Q: Could you please provide reported IC50 for O=C(Nc1cc([N+](=O)[O-])ccc1F)Nc1ccccc1CCO ? Thanks!
A: 500 to 1000 nM

Q: Could you please provide reported IC50 for CSc1cccc(NC(=O)NCc2cccc(F)c2)c1 ? Thanks!
A: 500 to 1000 nM

Q: Could you please provide reported IC50 for O=C(Nc1ccccc1CCO)Nc1ccccc1C(F)(F)F ? Thanks!
A: 500 to 1000 nM

Q: Could you please provide reported IC50 for COc1ccc(CNC(=O)Nc2ccccc2)cc1OC ? Thanks!
A: 500 to 1000 nM

Q: Could you please provide reported IC50 for CC(=O)c1cccc(NC(=O)Nc2ccccc2CCO)c1 ? Thanks!
A: 500 to 1000 nM

Q: Could you please provide reported IC50 for COc1ccc(Cl)cc1-c1cccc(NC(=O)Nc2ccccc2CCO)c1 [Example 228] ? Thanks!
A: < 100 nM

// provenance: patent US20050154230A1
